# credit: patent US20240067944A1

Target: T1, human plasma-derived FX (Haematologic Technologies Inc, USA) (human, UniProt P00742 41-179; P00742 183-488)
T1 construct: also called coagulation Factor X; human FX
T1 sequence (P00742 41-179, chain 1 of 2): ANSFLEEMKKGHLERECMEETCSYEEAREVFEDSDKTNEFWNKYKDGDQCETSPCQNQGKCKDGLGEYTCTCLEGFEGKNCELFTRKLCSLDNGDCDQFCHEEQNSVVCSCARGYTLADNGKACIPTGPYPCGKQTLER
T1 sequence (P00742 183-488, chain 2 of 2): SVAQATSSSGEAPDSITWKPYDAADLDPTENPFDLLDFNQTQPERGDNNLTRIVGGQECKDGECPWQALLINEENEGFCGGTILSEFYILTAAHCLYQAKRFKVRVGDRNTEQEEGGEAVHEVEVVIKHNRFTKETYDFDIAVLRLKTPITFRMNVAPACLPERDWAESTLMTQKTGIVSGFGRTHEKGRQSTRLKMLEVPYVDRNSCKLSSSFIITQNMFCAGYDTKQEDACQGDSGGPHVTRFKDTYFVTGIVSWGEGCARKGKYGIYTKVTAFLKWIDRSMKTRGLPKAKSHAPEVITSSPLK
Test: SPR, FX captured on immobilised anti-GLA-FX antibody, steady state analysis, 25 C
Experimental readout: Kd (nM)
Give the number; nM is assumed, so skip it.

Solved cases (2 shown):
Cmpd #6 (anti-FX/anti-FIX(a) VHH polypeptide derivative) (bispecific antibody, C16 diacid protractor (P2) via linker LP1 on Cys5 and Cys7 in C-term extension (SEQ ID NO: 8), Single chain of two VHH: anti-FX (N-terminal) and anti-FIX(a) (C-terminal)) DVQLVESGGGVVQPGGSLQLSCAASGRTHSRYAMGWFRQAPGQEREFVAAISRRGGSTNYADSVKGRFTISRDNSKNTVYLQMDSLRPEDTALYYCAADDSSGDGYLDYWGQGTLVTVSSGGGGSGGGSEVQLVESGGGVVQPGGSLQLSCAASGRTFNIYTMSWFRQAPGQEREFVAGLRWTDSSTEYADSVKGRFTISRDNSKNTVYLQMDSLRPEDTALYYCAADRSFLFAQALGATKNYEYWGQGTLVTVSSGGGGCSCHHHHHH = 232
Cmpd #14 (anti-FX/anti-FIX(a) VHH polypeptide derivative) (bispecific antibody, C16 diacid protractor (P2) via linker LP1 on Cys4 and Cys6 in C-term extension (SEQ ID NO: 9), Single chain of two VHH: anti-FX (N-terminal) and anti-FIX(a) (C-terminal); also called VHH1.14-L1-2-VHH2.14-E) DVQLVESGGGVVQPGGSLQLSCAASGGTKRRLAMGWFRQAPGQEREFVAAISRRGGSTNYADSVKGRFTISRDNSKNTVYLQMDSLRPEDTALYYCAADDSVGDGYLDYWGQGTLVTVSSGQAPGQEVQLVESGGGVVQPGGSLQLSCAASGRTFNIYTMSWFRQAPGQEREFVAGLRWTDSSTEYADSVKGRFTISRDNSKNTVYLQMDSLRPEDTALYYCAADRSFLFAQALGATKNYEYWGQGTLVTVSSGQACPC = 42

Next item in the queue.
Inquiry: Hello, please tell me recorded Kd for this one: Cmpd #15 (anti-FX/anti-FIX(a) VHH polypeptide derivative) (bispecific antibody, C16 diacid protractor (P2) via linker LP1 on Cys4 and Cys6 in C-term extension (SEQ ID NO:9), Single chain of two VHH: anti-FX (N-terminal) and anti-FIX(a) (C-terminal); also called VHH1.15-L1-2-VHH2.15-E) DVQLVESGGGVVQPGGSLQLSCAASGGTKRRLAMGWFRQAPGQEREWVAAISRRGGSTNYADSVKGRFTISRDNSKNTVYLQMDSLRPEDTALYYCAADDSVGDGYLDYWGQGTLVTVSSGQAPGQEVQLVESGGGVVQPGGSLQLSCAASGRTFNIYTMSWFRQAPGQEREFVAGLRWTDSSTEYADSVKGRFTISRDNSKNTVYLQMDSLRPEDTALYYCAADRSFLFAQALGATKNYEYWGQGTLVTVSSGQACPC
Reply text: 350
